Biological target: HU alpha (Escherichia coli) (UniProt P0ACF0)
Sequence: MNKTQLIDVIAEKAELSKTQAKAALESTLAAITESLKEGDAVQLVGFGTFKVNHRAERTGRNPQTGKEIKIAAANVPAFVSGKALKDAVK
Assay: EMSA
Details: 20 mM Tris-HCl pH 8.0, 150 mM NaCl, 7% glycerol; 15 min; labelled DNA 10.5 nM; gel in 100 mM Tris-borate; temperature not stated; low values mean tight binding
Reported endpoint: Kd (nM)
Express it in nM; write the number only.

QUERY: Reported Kd for AGTCTAGAGTGCAGTTGAGTCCTTGCTACGACGGATCCCTTAGGTCAG (double strand) [D48 dsDNA (ds)] : what is it?
RESULT: 293

Hey, just so you know, these numbers are from paper PMC5683647.
